- System: CAF#7 (primary prostate cancer-associated fibroblasts of myCAF-like type)
- assayOverview: drug sensitivity score (DSS2, normalised partial AUC of dose-response, 72 h CellTiter-Glo viability) (DSS (dimensionless)); higher = more sensitive (stronger growth inhibition / cytotoxicity); extreme values may be limits of the assay
resultType: drug sensitivity score
# answer = number (no unit)

compound	resultType	measured
COc1cc(Nc2c(C#N)cnc3cc(OCCCN4CCN(C)CC4)c(OC)cc23)c(Cl)cc1Cl [Bosutinib] (tested concentration range 1-10000 nM)	drug sensitivity score	4.1
CC(=O)O[C@H]1C(=O)[C@@]2(C)[C@H]([C@H](OC(=O)c3ccccc3)[C@]3(O)C[C@H](OC(=O)[C@H](O)[C@@H](NC(=O)c4ccccc4)c4ccccc4)C(C)=C1C3(C)C)[C@]1(OC(C)=O)CO[C@@H]1C[C@@H]2O [Paclitaxel] (tested concentration range 0.1-1000 nM)	drug sensitivity score	24.2
CCOc1cc2ncc(C#N)c(Nc3ccc(OCc4ccccn4)c(Cl)c3)c2cc1NC(=O)/C=C/CN(C)C [Neratinib] (tested concentration range 0.1-1000 nM)	drug sensitivity score	4.2

## Task Identify the reported drug sensitivity score for the following entry. Cn1nnc2c(C(N)=O)ncn2c1=O [Temozolomide] (tested concentration range 10-100000 nM)
## Result 0

## Task Identify the reported drug sensitivity score for the following entry. CO[C@@]12[C@H](COC(N)=O)C3=C(C(=O)C(C)=C(N)C3=O)N1C[C@@H]1N[C@@H]12 [Mitomycin C] (tested concentration range 1-10000 nM)
## Result 0
